- EXPERIMENT SUMMARY: Ex vivo biodistribution in PC-3 tumor-bearing mice
- CONDITIONS: mouse, fat, Uptake in fat, 72 h post-injection
- Protocol: SPECT/CT imaging experiments were performed using an MILabs (Houten, The Netherlands) U-SPECT-II/CT scanner with a custom-made ultra-high-sensitivity big mouse collimator (2 mm pinhole size) following previously reported procedures. […] For ex vivo biodistribution studies, the mice were injected with ~2–6 MBq of the radioligand. […] Organs/tissues of interested were collected, weighed, and measured using an automatic gamma counter.
Numbered stars: 1 amine (or outer) side, 2 acyl side, 3 side chain; on linkers, the order of the positions; unused ones are H or OH. Square brackets hold non-standard residues; d marks the D form. Peptide text beside a SMILES is read from it. * marks the point of attachment. DOTA = O=C(O)CN1CCN(CC(=O)O)CCN(CC(=O)*)CCN(CC(=O)O)CC1; NMeH = CN[C@@H](Cc1c[nH]cn1)C(=O)O; X1 = O=C(CN1CCC(N[*:1])CC1)[*:2]; Tle = CC(C)(C)[C@H](N)C(=O)O; Thz = O=C(O)[C@@H]1CSCN1
RECORDED METRIC: tissue uptake at 72 h (%ID/g)
A number alone suffices; assume %ID/g.

COMPOUND	RECORDED METRIC	U	OBSERVED VALUE
CC(C)C[C@@H](CN1CSC[C@H]1C(N)=O)NC(=O)[C@H](Cc1cnc[nH]1)NC(=O)CN(C)C(=O)[C@@H](NC(=O)[C@H](C)NC(=O)[C@H](Cc1c[nH]c2ccccc12)NC(=O)[C@H](CCC(N)=O)NC(=O)[C@@H](Cc1ccccc1)NC(=O)CN1CCC(NC(=O)CN2CCN(CC(=O)O)CCN(CC(=O)O)CCN(CC(=O)O)CC2)CC1)C(C)C [[^177Lu]Lu-TacsBOMB5, metal not drawn]	tissue uptake at 72 h	%ID/g	0.02

For the next question, use this compound.
Lab book: tissue uptake at 72 h of CC(C)C[C@H](NC(=O)[C@H](Cc1cnc[nH]1)N(C)C(=O)CNC(=O)[C@@H](NC(=O)[C@H](C)NC(=O)[C@H](Cc1c[nH]c2ccccc12)NC(=O)[C@H](Cc1c[nH]cn1)NC(=O)[C@@H](Cc1ccccc1)NC(=O)CN1CCC(NC(=O)CN2CCN(CC(=O)O)CCN(CC(=O)O)CCN(CC(=O)O)CC2)CC1)C(C)(C)C)C(=O)N1CSC[C@H]1C(N)=O [[^177Lu]Lu-LW01142, metal not drawn] ({DOTA}-[X1][dF]HWA[Tle]G[NMeH]L[Thz]-NH2) noted as 0.01

----------
- EXPERIMENT SUMMARY: Ex vivo biodistribution in PC-3 tumor-bearing mice
- CONDITIONS: mouse, spleen, Uptake in spleen, 24 h post-injection
Numbered stars: 1 amine (or outer) side, 2 acyl side, 3 side chain; on linkers, the order of the positions; unused ones are H or OH. Square brackets hold non-standard residues; d marks the D form. Peptide text beside a SMILES is read from it. * marks the point of attachment. DOTA = O=C(O)CN1CCN(CC(=O)O)CCN(CC(=O)*)CCN(CC(=O)O)CC1; NMeH = CN[C@@H](Cc1c[nH]cn1)C(=O)O; X1 = O=C(CN1CCC(N[*:1])CC1)[*:2]; Tle = CC(C)(C)[C@H](N)C(=O)O; Thz = O=C(O)[C@@H]1CSCN1
Below, each entry is listed alongside its reported tissue uptake at 24 h.
Note: a bare number is incomplete; add the unit.

COMPOUND	OBSERVED VALUE
CC(C)C[C@H](NC(=O)[C@H](Cc1cnc[nH]1)N(C)C(=O)CNC(=O)[C@@H](NC(=O)[C@H](C)NC(=O)[C@H](Cc1c[nH]c2ccccc12)NC(=O)[C@H](Cc1c[nH]cn1)NC(=O)[C@@H](Cc1ccccc1)NC(=O)CN1CCC(NC(=O)CN2CCN(CC(=O)O)CCN(CC(=O)O)CCN(CC(=O)O)CC2)CC1)C(C)(C)C)C(=O)N1CSC[C@H]1C(N)=O [[^177Lu]Lu-LW01142, metal not drawn] ({DOTA}-[X1][dF]HWA[Tle]G[NMeH]L[Thz]-NH2)	0.14 %ID/g

Now look at this one.
Form field tissue uptake at 24 h, entry CC(C)C[C@@H](CN1CSC[C@H]1C(N)=O)NC(=O)[C@H](Cc1cnc[nH]1)NC(=O)CN(C)C(=O)[C@@H](NC(=O)[C@H](C)NC(=O)[C@H](Cc1c[nH]c2ccccc12)NC(=O)[C@H](CCC(N)=O)NC(=O)[C@@H](Cc1ccccc1)NC(=O)CN1CCC(NC(=O)CN2CCN(CC(=O)O)CCN(CC(=O)O)CCN(CC(=O)O)CC2)CC1)C(C)C [[^177Lu]Lu-TacsBOMB5, metal not drawn] : 0.16 %ID/g

// data source = paper PMC12030706
